- TEST SYSTEM: P2X7 receptor (Homo sapiens, UniProt Q99572)
- Construct: endogenous in cells; host or cells: THP-1 cells differentiated with LPS and IFN-γ
- Sequence (Q99572 whole entry): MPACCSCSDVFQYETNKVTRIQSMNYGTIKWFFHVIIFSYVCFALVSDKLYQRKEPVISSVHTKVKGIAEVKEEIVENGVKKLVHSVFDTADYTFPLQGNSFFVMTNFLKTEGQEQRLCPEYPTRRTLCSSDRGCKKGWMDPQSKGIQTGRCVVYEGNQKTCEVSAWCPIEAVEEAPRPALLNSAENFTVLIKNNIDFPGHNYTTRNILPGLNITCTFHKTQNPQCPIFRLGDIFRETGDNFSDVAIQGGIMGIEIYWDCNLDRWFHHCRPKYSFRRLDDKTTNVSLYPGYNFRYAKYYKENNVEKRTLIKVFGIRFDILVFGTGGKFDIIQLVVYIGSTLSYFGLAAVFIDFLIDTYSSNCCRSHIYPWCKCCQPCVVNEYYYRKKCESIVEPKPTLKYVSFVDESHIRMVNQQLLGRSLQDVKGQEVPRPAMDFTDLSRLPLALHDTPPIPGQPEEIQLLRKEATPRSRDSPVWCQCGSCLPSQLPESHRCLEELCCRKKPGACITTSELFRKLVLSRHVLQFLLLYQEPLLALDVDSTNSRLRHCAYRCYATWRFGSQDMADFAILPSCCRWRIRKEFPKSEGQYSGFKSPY
- METHOD: IL-1β release assay in differentiated THP-1 cells stimulated with BzATP (Example 9)
- Format: cell-based
- CONDITION CONTEXT: four parameter logistic fit, read-out: IL-1β IC50
VALUE KIND: IC50
Please answer in the form of a number followed by its unit of measurement.

Some compounds with recorded IC50:
| COMPOUND | REPORTED VALUE |
| --- | --- |
| O=C(Cc1ccc(F)c(Cl)c1)Nc1cccc2c(=O)n(C3CC3)ccc12 [ID 881] | 4.32 nM |
| C[C@H](C(=O)Nc1cccc2c(=O)n(C3CC3)ccc12)c1ccc(Cl)cc1 [ID 894] | 31.9 nM |
| O=C(CC1CCCCCC1)Nc1cccc2c(=O)n(-c3cc[nH]n3)ccc12 [ID 844] | 3.33 nM |
| O=C(Cc1ccc(C(F)(F)F)cc1C(F)(F)F)Nc1cccc2c(=O)n(C3CC3)ccc12 [ID 880] | 67.8 nM |
| O=C(CC1(O)CCCCCC1)Nc1cccc2c(=O)n([C@H]3CCNC3)ccc12 [ID 849] | 403 nM |
| O=C(Cc1ccc(Cl)c(C(F)(F)F)c1)Nc1cccc2c(=O)n([C@H]3CCNC3)ccc12 [ID 825] | 16.4 nM |
| Cc1ncccc1-n1ccc2c(NC(=O)Cc3ccc(Cl)c(C(F)(F)F)c3)cccc2c1=O [ID 861] | 4 nM |
| Cc1ncccc1-n1ccc2c(NC(=O)Cc3ccc(F)c(C(F)(F)F)c3)cccc2c1=O [ID 860] | 13.9 nM |

// query Field request: IC50 | item: CC(C(=O)Nc1cccc2c(=O)n(C3CCNCC3)ccc12)c1ccc(Cl)cc1 (stereo not drawn) [ID 817]
// result 902 nM

// query Field request: IC50 | item: O=C(Cc1ccc(Cl)c(C(F)(F)F)c1)Nc1cccc2c(=O)n(C3CC3)ccc12 [ID 890]
// result 4.33 nM

// query Field request: IC50 | item: Cc1ncccc1-n1ccc2c(NC(=O)Cc3ccc(C(F)(F)F)cc3)cccc2c1=O [ID 851]
// result 147 nM

// query Field request: IC50 | item: Cc1ncccc1-n1ccc2c(NC(=O)Cc3ccc(C(F)(F)F)cc3F)cccc2c1=O [ID 865]
// result 76.7 nM

// query Field request: IC50 | item: O=C(Cc1ccc(F)c(C(F)(F)F)c1)Nc1cccc2c(=O)n(-c3cccnc3F)ccc12 [ID 872]
// result 30.4 nM

// query Field request: IC50 | item: O=C(Cc1ccc(Cl)c(F)c1)Nc1cccc2c(=O)n(-c3cccnc3F)ccc12 [ID 873]
// result 31.4 nM

// query Field request: IC50 | item: Cc1ncccc1-n1ccc2c(NC(=O)Cc3ccc(Cl)cc3F)cccc2c1=O [ID 859]
// result 50.1 nM

// query Field request: IC50 | item: Cc1ccncc1-n1ccc2c(NC(=O)Cc3ccc(C(F)(F)F)c(F)c3)cccc2c1=O [ID 856]
// result 129 nM

// query Field request: IC50 | item: O=C(CC12CC3CC(CC(C3)C1)C2)Nc1cccc2c(=O)n(-c3ccc(Sc4cc(Cl)ccc4Cl)nc3)ccc12 [ID 707]
// result 1.63 nM

// query Field request: IC50 | item: O=C(Cc1ccc(Cl)cc1F)Nc1cccc2c(=O)n(C3CN4CCC3CC4)ccc12 (stereo not drawn) [ID 846]
// result 162 nM

Origin of the recorded values: patent US20090298825A1
